- testedOn: HLA-A*02:01 (Homo sapiens, UniProt P04439, D140Y/D185E/D98H/E176V/E277Q/G131W/G231S/I119V/I121R/I166T/I218V/L300P/L318F/N151K/N90K/P208A/P217A/Q86G/Q94H/R138H/R169H/T345S)
- methodSummary: MHC binding assay: UV-ligand exchange with beta2m ELISA (exchange yield)
- reportedConditions: binding to HLA-A*02:01, β2m ELISA
measuredProperty: Peptide exchange (MHC class I binding score, peptide exchange yield)

substance | observedMeasurement
311 (RLYTGMHTV; listed as Homo sapiens) [compound 311] | “+++” (≥50 = +++)
21 (VLDELDMEL; listed as Homo sapiens) [compound 21] | “++” (≥20% = ++)
298 (VMITKLVEV; listed as Homo sapiens) [compound 298] | “+++” (≥50 = +++)
183 (FGLDLVTEL; listed as Homo sapiens) [compound 183] | “+++” (≥50 = +++)
572 (ALADLIEKELSV; listed as Homo sapiens) [compound 572] | “+++” (≥50 = +++)
132 (LLVEQPPLAGV; listed as Homo sapiens) [compound 132] | “+++” (≥50 = +++)
589 (KLYPQLPAEI; listed as Homo sapiens) [compound 589] | “+++” (≥50 = +++)
392 (ALLHPQGFEV; listed as Homo sapiens) [compound 392] | “++” (≥20% = ++)
398 (KLLEEDGTIITL; listed as Homo sapiens) [compound 398] | “++” (≥20% = ++)
6 (VLVSDGVHSV; listed as Homo sapiens) [compound 6] | “+++” (≥50 = +++)

---

- testedOn: HLA-A*02:01 (Homo sapiens, UniProt P04439, D140Y/D185E/D98H/E176V/E277Q/G131W/G231S/I119V/I121R/I166T/I218V/L300P/L318F/N151K/N90K/P208A/P217A/Q86G/Q94H/R138H/R169H/T345S)
- methodSummary: MHC binding assay: UV-ligand exchange with beta2m ELISA (exchange yield)
- reportedConditions: binding to HLA-A*02:01, β2m ELISA
measuredProperty: Peptide exchange (MHC class I binding score, peptide exchange yield)

substance | observedMeasurement
39 (SVAPNLPAV; listed as Homo sapiens) [compound 39] | “+++” (≥50 = +++)
176 (YLMEGSYNKVFL; listed as Homo sapiens) [compound 176] | “++” (≥20% = ++)
610 (LLAPTPYIIGV; listed as Homo sapiens) [compound 610] | “+++” (≥50 = +++)
57 (TLAELQPPVQL; listed as Homo sapiens) [compound 57] | “+++” (≥50 = +++)
554 (LLMPSSEDLLL; listed as Homo sapiens) [compound 554] | “+++” (≥50 = +++)
345 (VIWKALIHL; listed as Homo sapiens) [compound 345] | “+++” (≥50 = +++)
284 (ILLSQTTGV; listed as Homo sapiens) [compound 284] | “+++” (≥50 = +++)
86 (NLIGKIENV; listed as Homo sapiens) [compound 86] | “+++” (≥50 = +++)
528 (SVAEGRALMSV; listed as Homo sapiens) [compound 528] | “+++” (≥50 = +++)
161 (ALLEGVNTV; listed as Homo sapiens) [compound 161] | “+++” (≥50 = +++)
128 (YLFDDPLSAV; listed as Homo sapiens) [compound 128] | “++” (≥20% = ++)
90 (TLLQIIETV; listed as Homo sapiens) [compound 90] | “+++” (≥50 = +++)
239 (AAFAGKLLSV; listed as Homo sapiens) [compound 239] | “+++” (≥50 = +++)
250 (ALSEEGLLVYL; listed as Homo sapiens) [compound 250] | “+++” (≥50 = +++)
309 (GLFDGVPTTA; listed as Homo sapiens) [compound 309] | “+++” (≥50 = +++)
115 (AIAGAGILYGV; listed as Homo sapiens) [compound 115] | “++” (≥20% = ++)
612 (YLYNEGLSV; listed as Homo sapiens) [compound 612] | “+++” (≥50 = +++)
279 (ALWGGTQPLL; listed as Homo sapiens) [compound 279] | “++” (≥20% = ++)

---

- testedOn: HLA-A*02:01 (Homo sapiens, UniProt P04439, D140Y/D185E/D98H/E176V/E277Q/G131W/G231S/I119V/I121R/I166T/I218V/L300P/L318F/N151K/N90K/P208A/P217A/Q86G/Q94H/R138H/R169H/T345S)
- methodSummary: MHC binding assay: UV-ligand exchange with beta2m ELISA (exchange yield)
- reportedConditions: binding to HLA-A*02:01, β2m ELISA
measuredProperty: Peptide exchange (MHC class I binding score, peptide exchange yield)

substance | observedMeasurement
473 (AMATESILHFA; listed as Homo sapiens) [compound 473] | “+++” (≥50 = +++)
469 (YLASDEITTV; listed as Homo sapiens) [compound 469] | “+++” (≥50 = +++)
214 (FLLDLDPLLL; listed as Homo sapiens) [compound 214] | “+++” (≥50 = +++)
373 (SLLEDKGLAEV; listed as Homo sapiens) [compound 373] | “++” (≥20% = ++)
221 (ALYEEGLLL; listed as Homo sapiens) [compound 221] | “++” (≥20% = ++)
265 (LLFGGTKTV; listed as Homo sapiens) [compound 265] | “++” (≥20% = ++)
515 (LLQELVLFL; listed as Homo sapiens) [compound 515] | “+++” (≥50 = +++)
441 (ALLENPKMEL; listed as Homo sapiens) [compound 441] | “+++” (≥50 = +++)
256 (FLPPEHTIVYI; listed as Homo sapiens) [compound 256] | “+++” (≥50 = +++)
577 (VMFEDGVLMRL; listed as Homo sapiens) [compound 577] | “+++” (≥50 = +++)
394 (LLAVIGGLVYL; listed as Homo sapiens) [compound 394] | “+++” (≥50 = +++)
238 (YLISFQTHI; listed as Homo sapiens) [compound 238] | “+++” (≥50 = +++)
449 (KLAEGLDIQL; listed as Homo sapiens) [compound 449] | “+++” (≥50 = +++)
495 (FIFSEKPVFV; listed as Homo sapiens) [compound 495] | “+++” (≥50 = +++)
574 (YLLQEPPRTV; listed as Homo sapiens) [compound 574] | “++” (≥20% = ++)
106 (LLYDAVHIVSV; listed as Homo sapiens) [compound 106] | “+++” (≥50 = +++)
210 (LLLNAVLTV; listed as Homo sapiens) [compound 210] | “++” (≥20% = ++)

---

- testedOn: HLA-A*02:01 (Homo sapiens, UniProt P04439, D140Y/D185E/D98H/E176V/E277Q/G131W/G231S/I119V/I121R/I166T/I218V/L300P/L318F/N151K/N90K/P208A/P217A/Q86G/Q94H/R138H/R169H/T345S)
- methodSummary: MHC binding assay: UV-ligand exchange with beta2m ELISA (exchange yield)
- reportedConditions: binding to HLA-A*02:01, β2m ELISA
measuredProperty: Peptide exchange (MHC class I binding score, peptide exchange yield)

substance | observedMeasurement
91 (IMQDFPAEIFL; listed as Homo sapiens) [compound 91] | “++++” (≥75% = ++++)
573 (ILVANAIVGV; listed as Homo sapiens) [compound 573] | “+++” (≥50 = +++)
286 (YLFPGIPEL; listed as Homo sapiens) [compound 286] | “+++” (≥50 = +++)
527 (FLLEPGNLEV; listed as Homo sapiens) [compound 527] | “++++” (≥75% = ++++)
348 (ILLDVKTRL; listed as Homo sapiens) [compound 348] | “++++” (≥75% = ++++)
361 (ALYELEGTTV; listed as Homo sapiens) [compound 361] | “+++” (≥50 = +++)
296 (FMEGAIIYV; listed as Homo sapiens) [compound 296] | “+++” (≥50 = +++)
125 (VQIHQVAQV; listed as Homo sapiens) [compound 125] | “+++” (≥50 = +++)
429 (GLVNDLARV; listed as Homo sapiens) [compound 429] | “++” (≥20% = ++)
342 (HIYDKVMTV; listed as Homo sapiens) [compound 342] | “+++” (≥50 = +++)
330 (QLALKVEGV; listed as Homo sapiens) [compound 330] | “+++” (≥50 = +++)
433 (AMLNEPWAV; listed as Homo sapiens) [compound 433] | “+++” (≥50 = +++)
231 (FLSPQQPPLLL; listed as Homo sapiens) [compound 231] | “++” (≥20% = ++)
